Listed below: MIC values for each entry.
Test system: Serratia marcesceus 2532
assay explanation: In vitro activity, dilution method in liquid medium (MIC)
Format: cell-based
condition context: 24 H incubation at 37°C, read-out: concentrations minimales inhibitrices (C. M. I.)
Numeric answer only, unit mg/L assumed.

C[C@@H]1[C@H](NC(=O)/C(=N\OCC(=O)O)c2csc(N)n2)C(=O)N1c1nn[nH]n1 (racemic): 2.5
CO/N=C(\C(=O)N[C@H]1CN(c2nn[nH]n2)C1=O)c1csc(N)n1: 2.5
CO/N=C(\C(=O)N[C@@H]1C(=O)N(c2nn[nH]n2)[C@@H]1CF)c1csc(N)n1 (racemic): 10
CO/N=C(\C(=O)N[C@@H]1C(=O)N(c2nn[nH]n2)[C@@H]1C)c1csc(N)n1 (racemic): 20
CO/N=C(\C(=O)N[C@@H]1C(=O)N(c2nn[nH]n2)[C@H]1C)c1csc(N)n1 (racemic): 20

Kindly note the recorded MIC for C[C@@H]1[C@H](NC(=O)/C(=N\OC(F)F)c2csc(N)n2)C(=O)N1c1nn[nH]n1 (racemic) , which is 20

Value of measured MIC for the entry C[C@@H]1[C@H](NC(=O)/C(=N\OC(C)(C)C(=O)O)c2csc(N)n2)C(=O)N1c1nn[nH]n1 (racemic) : 1.2

----------
Tested on: Enterobacter cloacae 1321 E
assay explanation: In vitro activity, dilution method in liquid medium (MIC)
Format: cell-based
condition context: 48 H incubation at 37°C, read-out: concentrations minimales inhibitrices (C. M. I.)
Overview of recorded MIC for various compounds
A number alone suffices; assume µg/mL.

CO/N=C(\C(=O)N[C@H]1CN(c2nn[nH]n2)C1=O)c1csc(N)n1 [Prod. ex.3]: 0.3
C[C@@H]1[C@H](NC(=O)/C(=N\OCC(=O)O)c2csc(N)n2)C(=O)N1c1nn[nH]n1 (racemic) [Prod. ex. 6]: 0.6

Then this compound:
Kindly note the recorded MIC for C[C@@H]1[C@H](NC(=O)/C(=N\OC(F)F)c2csc(N)n2)C(=O)N1c1nn[nH]n1 (racemic) [Prod. ex. 4] , which is 1.2
